target: T1, recombinant human AXL extracellular domain, C-terminally His8-tagged (rhAXL-ECD) (human, UniProt P30530 26-451)
T1 construct: Made in CHO cells; also called (rh)AXL-ECD His8; human AXL ECD
T1 sequence: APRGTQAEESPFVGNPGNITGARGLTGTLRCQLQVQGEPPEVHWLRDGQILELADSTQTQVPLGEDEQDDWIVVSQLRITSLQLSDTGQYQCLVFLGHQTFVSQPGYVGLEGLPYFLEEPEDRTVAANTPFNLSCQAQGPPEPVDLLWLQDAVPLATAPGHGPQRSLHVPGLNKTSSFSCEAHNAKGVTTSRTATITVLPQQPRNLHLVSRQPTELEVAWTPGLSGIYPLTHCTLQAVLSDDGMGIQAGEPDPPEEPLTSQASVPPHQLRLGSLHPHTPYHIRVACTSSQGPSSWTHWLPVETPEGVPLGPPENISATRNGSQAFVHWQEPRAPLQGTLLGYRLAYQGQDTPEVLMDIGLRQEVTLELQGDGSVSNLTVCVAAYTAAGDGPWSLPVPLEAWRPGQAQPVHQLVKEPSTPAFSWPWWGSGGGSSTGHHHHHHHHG
method.summary: ELISA on coated AXL ECD (100 ng/well), HRP-protein A
measured.metric: EC50 (nM)
Unit nM implied. Number only.

binder | obs.value
mIgG2 F149-4G4 (antibody, V domains shown, Printed as mIgG2 (mouse IgG2)) VH: QIQLVQSGPELKKPGETVKISCKTSGYTFTYYGINWVKQAPGKGLEWMGWINTYLGEPTYADDFKGRFAFSLETSASTAYLQINNLRDEDMATYFCTRGTMSYSFDYWGQGTALTVSS VL: QNVLTQSPAIMSASPGEEVTMTCRASSSVSSSYLHWYQQKSGASPKLWIYSTSKLASGVPARFSGSGSGTSYSLTISSVEAEDAATYYCHQYSGDPLTFGSGTKLEVK | 15

Reported EC50 of hFC-F107-10G1 (antibody, human IgG1, kappa, V domains shown, Chimeric mAb, human IgG1 / human kappa constant regions; also called mAb F107-10G1) VH: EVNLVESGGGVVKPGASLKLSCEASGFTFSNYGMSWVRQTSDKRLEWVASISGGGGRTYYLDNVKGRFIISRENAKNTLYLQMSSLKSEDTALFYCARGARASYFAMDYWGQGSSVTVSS VL: VIVMTQSHKFMSTSVGDRVSITCKASQDVTTAVAWYQQKPGQSPKLLIYWASTRHTGVPDRFTGSGSGTDYSLTISNVQTEDLAFYYCQQHFTTPLTFGAGTKLELKR : 2

Value source: patent US20240076389A1
